# Tested on: MOLT-4 leukemia
# testMethodNotes: NCI-60 one-dose screen, 48 h (100 = growth as untreated, 0 = no growth, -100 = all killed)
# conditionSummary: 10 µM unless noted
Compounds without any hit were thinned out: in the full panel of roughly 83,000, 20% have a hit.
growth class ranges: c1 = under 20%, c2 = from 20% up to 70%, c3 = 70% and over

# molecule, className
data = [
    ("CCN(CC)c1ccc2cc(C(=O)NCCOCCOCCOCCn3cc(CCC(=O)Nc4ccc(C(=O)c5ccc(NC(=O)OC(C)(C)C)cc5)cc4)nn3)c(=O)oc2c1", "c2"),
    ("O=C1c2c(c3c4cccnc4[nH]c3c3ccc4ccccc4c23)C(=O)N1CCN1CCCCC1", "c1"),
    ("CNC(=O)c1cc(Oc2ccc3nc(NC(=O)c4cc(C)cc(C)c4)sc3c2)ccn1", "c2"),
    ("CCC(CC)n1c(=O)c(SC2=NC3C(NN2)N(CC)C(=O)N3CC)c(C(=O)O)c2ccccc21 (stereo not given)", "c1"),
    ("COc1ccc(-c2nc3cc(Cl)c(Cl)cc3n2CC(=O)N=Nc2c(O)[nH]c3ccc(Cl)cc23)cc1", "c2"),
    ("CN(C)c1ncc(/C=C2\\SC(=S)N(Cc3ccccc3Cl)C2=O)s1", "c3"),
    ("COc1cc(NC2=C(Cl)C(=O)c3nc(C)ccc3C2=O)cc(OC)c1", "c1"),
    ("O=C1[C@@H]2Cc3c([nH]c4ccccc34)[C@H](c3c(Cl)cccc3Cl)N2C(=O)CN1C1CCN(Cc2ccccc2)CC1", "c1"),
    ("CNC(=O)c1cc(Oc2ccc3nc(NC(=O)c4cccc(C(F)(F)F)c4)sc3c2)ccn1", "c3"),
    ("CCOC(=O)c1c(NC(=O)c2ccc(C(C)(C)C)cc2)sc2cc(OCCN3CCCCC3)ccc12", "c3"),
    ("CC(c1ccccc1)N1C(=O)/C(=C/c2csc(C#N)n2)SC1=S (stereo not given)", "c2"),
    ("Cc1cn(-c2cc(NC(=O)c3cncc(C#Cc4cnc5ccc(OCCCS(C)(=O)=O)nn45)c3)cc(C(F)(F)F)c2)cn1", "c1"),
    ("C/C(=C(/C)C1CC1CCN(C(=O)c1ccccn1)S(=O)(=O)c1ccc(C)cc1)C1CCCCC1 (stereo not given)", "c3"),
    ("CCCCSc1nnc(-c2ccc(-c3ccc(Cl)cc3)nc2C)o1", "c3"),
]

###

# Test system: DU-145 prostate
# testMethodNotes: NCI-60 one-dose screen, 48 h
# conditionSummary: 10 µM unless noted
Compounds without any hit were thinned out: in the full panel of roughly 83,000, 20% have a hit. Calls of active or inactive are those of the source. How the source made its calls: active means growth percent below 10; inactive means the rest.
Outcome codes: active, inactive

# molecule, assayTarget, className
measured = [
    ("O=C(COc1cccc2cccnc12)Nc1ccc(C(=O)/C=C/c2ccc(Cl)cc2)cc1", "DU-145 prostate", "inactive"),
    ("O=c1[nH]c(CCl)nc2c1cnn2-c1ccccc1", "DU-145 prostate", "inactive"),
    ("O=C(Nc1cccc(-c2nc(-c3ccc(NC(=O)c4cccnc4)cc3Cl)no2)c1)Nc1ccc(NC(=O)C2CC2)c(C(F)(F)F)c1", "DU-145 prostate", "active"),
    ("CCOC(=O)/C=c1\\sc2n(c1=O)C1C(NN=2)N(CC)C(=O)N1CC (stereo not given)", "DU-145 prostate", "inactive"),
    ("Cc1cc(F)cc(NS(=O)(=O)c2ccc(-c3cnc(C4CC4)o3)cc2)c1", "DU-145 prostate", "inactive"),
    ("Oc1ccc(CSc2nnc(-c3ccncc3)n2-c2ccccc2)c2cccnc12", "DU-145 prostate", "inactive"),
    ("Oc1ccc(CSc2nnc(-c3ccc(Oc4ccccc4)cc3)o2)c2cccnc12", "DU-145 prostate", "inactive"),
    ("CN(c1ccc(F)cc1)S(=O)(=O)c1ccc(-c2cnc(C3CC3)o2)cc1", "DU-145 prostate", "inactive"),
    ("CCOC(=O)c1c(Nc2ccccc2)nn2c(-c3ccc(OC)c(OC)c3)ccnc12", "DU-145 prostate", "inactive"),
    ("C=C(C)[C@@H]1CC[C@]2(C(=O)ON)CC[C@]3(C)[C@H](CC[C@@H]4[C@@]5(C)C/C(=C/c6ccc(Br)cc6)C(=O)C(C)(C)[C@@H]5CC[C@]43C)[C@@H]12", "DU-145 prostate", "inactive"),
    ("O=C(CSc1nnc(-c2cccs2)n1-c1ccccc1)Nc1ccc(F)cc1", "DU-145 prostate", "inactive"),
    ("CNC(=O)c1cc(Oc2ccc3nc(NC(=O)c4ccc(CN5CCN(C)CC5)c(C(F)(F)F)c4)sc3c2)ccn1", "DU-145 prostate", "inactive"),
    ("COc1ccccc1/C=C/C=N/NC1=NC2C(S1)N(C)C(=O)N2c1ccccc1 (stereo not given)", "DU-145 prostate", "active"),
    ("COc1ccc2c(c1)c(-c1nn3c(=O)cc(-c4ccccc4)nc3s1)cn2C", "DU-145 prostate", "inactive"),
    ("CCCCCCNC(=O)Oc1ccc(/C(=C(/C)c2ccc(OC)cc2)c2ccc(OCCN3CCCC3)cc2)cc1", "DU-145 prostate", "inactive"),
]

Cited source for all entries: PubChem BioAssay (NCI)
